Please go through the items and note down their inhibition.
Target: UniProtKB P05412
Sequence (P05412 whole entry): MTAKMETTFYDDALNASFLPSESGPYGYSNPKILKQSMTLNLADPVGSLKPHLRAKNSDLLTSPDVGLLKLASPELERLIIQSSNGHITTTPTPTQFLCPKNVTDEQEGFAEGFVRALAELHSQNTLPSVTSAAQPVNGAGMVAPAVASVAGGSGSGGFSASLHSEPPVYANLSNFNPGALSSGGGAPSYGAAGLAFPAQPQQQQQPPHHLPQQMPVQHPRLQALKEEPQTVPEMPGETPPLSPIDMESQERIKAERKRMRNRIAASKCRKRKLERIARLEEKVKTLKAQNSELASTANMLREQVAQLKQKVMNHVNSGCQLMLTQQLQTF
Experiment: Inhibition of AP-1 expressed in HEK293 cells assessed as PMA-stimulated transcriptional activation at 10 uM treated 24 hrs before PMA challenge measured after 20 to 24 hrs by luciferase reporter gene assay
Assay type: cell-based
Value expressed in %; do not type the unit.

The reported value for `CSc1ccc(-c2cc(-c3nc4ccccc4c(=O)n3-c3ccccc3C)sc2N2CCOCC2)cc1` in terms of inhibition is 13

The reported value for `Cc1ccc(-n2c(-c3cc(-c4ccncc4)c(N4CCOCC4)s3)nc3ccccc3c2=O)cc1` in terms of inhibition is 29

The reported value for `Cc1cccc(-n2c(-c3cc(-c4ccc(S(C)(=O)=O)cc4)c(N4CCOCC4)s3)nc3ccccc3c2=O)c1` in terms of inhibition is 48

The reported value for `CC(=O)c1ccc(-n2c(-c3cc(-c4ccc(Cl)cc4)c(N4CCOCC4)s3)nc3ccccc3c2=O)cc1` in terms of inhibition is 7

Value source: ChEMBL document CHEMBL1156197
